The origin of these recorded values is patent US8987486B2.

tested on: MAP kinase; experiment: Activation (phosphorylation) of MAP kinase by Western immunoblotting in cultured cerebral cortex nerve cells; format: cell-based, rat; details: 60 μg/mL, Test Example 6, relative to control (0 μg/mL = 1.0)
Would you mind telling me the reported Ratio of pMAPK to MAPK of each entry?
Lab note: jot the number down without any unit.

Summary for this molecule, CCCCCCC/C=C/C(=O)NCCN(CC)CC : Ratio of pMAPK to MAPK is 3.4

Sample CCCCCCC/C=C/C(=O)NCCN(C)C ; Ratio of pMAPK to MAPK observed: 5.1

Reported Ratio of pMAPK to MAPK for CCCCCCC/C=C/C(=O)OCCOCCN(CC)CC was 3.1

Looking up CCCCCCC/C=C/C(=O)OCCCCN(C)C [Compound 4, (E)-4-(dimethylamino)butyl dec-2-enoate] , I found its Ratio of pMAPK to MAPK recorded as 3.2

Per the record, CCCCCCC/C=C/C(=O)SCCN(CC)CC has Ratio of pMAPK to MAPK of 5.0

Lab book: Ratio of pMAPK to MAPK of CCCCCCC/C=C/C(=O)SCCN(C)C noted as 8.6

----------
tested on: PC12 cells; experiment: Evaluation using PC12 cells; immunostaining method for MAPK phosphorylation; type: cell-based; details: 250 μg/mL, 30 minutes
Observation type: Rate of pMAPK-positive cells (%)
Write the number in % without appending the unit.

Per the reported PC12 cells data, CCCCCCC/C=C/C(=O)OCCCN(C)C [Compound 2, (E)-3-(dimethylamino)propyl dec-2-enoate] has Rate of pMAPK-positive cells (%) of 71

Item: CCCCCCC/C=C/C(=O)N(CC)CC [Compound 31, (E)-N,N-diethyl dec-2-enamide] | System: PC12 cells | Rate of pMAPK-positive cells (%): 98

CCCCCCC/C=C/C(=O)N(CCCN(C)C)CCCN(C)C on PC12 cells gives Rate of pMAPK-positive cells (%) = 23

Bench note, PC12 cells: CCCCCCC/C=C/C(=O)N(CCN(C)C)CCN(C)C , Rate of pMAPK-positive cells (%) reads 50

Bench note, PC12 cells: CCCCCCC/C=C/C(=O)OCCN(C)C [Compound 1, (E)-2-(dimethylamino)ethyl dec-2-enoate] , Rate of pMAPK-positive cells (%) reads 36

So the reported Rate of pMAPK-positive cells (%) for CCCCCCC/C=C/C(=O)OC(C)CN(C)C (centres unmarked) , on PC12 cells, turned out to be 14

Summary line: CCCCCCC/C=C/C(=O)NCCN(C)C , PC12 cells, reported Rate of pMAPK-positive cells (%) = 89

Per the reported PC12 cells data, CCCCCCC/C=C/C(=O)NCCN(CC)CC has Rate of pMAPK-positive cells (%) of 48

Param item: CCCCCCC/C=C/C(=O)N(C)CCN(C)C ; param system: PC12 cells; output Rate of pMAPK-positive cells (%): 27

# lookup: CCCCCCC/C=C/C(=O)SCCN(C)C on PC12 cells, Rate of pMAPK-positive cells (%) = 41

Reported PC12 cells Rate of pMAPK-positive cells (%) for item CCCCCCC/C=C/C(=O)N(CCN(CC)CC)CCN(CC)CC was 32

The value of Rate of pMAPK-positive cells (%) recorded for CCCCCCC/C=C/C(=O)OCCOCCN(C)C when tested on PC12 cells reads 9

Recorded Rate of pMAPK-positive cells (%) for CCCCCCC/C=C/C(=O)N(CC)CCN(CC)CC on PC12 cells was 18

Field Rate of pMAPK-positive cells (%) (PC12 cells), entry CCCCCCC/C=C/C(=O)OCCOCCN(CC)CC : 52

Note to self: Rate of pMAPK-positive cells (%) of CCCCCCC/C=C/C(=O)OCC(C)(C)CN(C)C with PC12 cells was 0

Tested on PC12 cells, the item CCCCCCC/C=C/C(=O)N(CC)CCN(C)C showed Rate of pMAPK-positive cells (%) equal to 49

Test item CCCCCCC/C=C/C(=O)OCCCCN(C)C [Compound 4, (E)-4-(dimethylamino)butyl dec-2-enoate] ; PC12 cells; reported Rate of pMAPK-positive cells (%) was 64
